- ASSAY OVERVIEW: in vivo
- RECORDED CONDITIONS: male, Chinchilla, rabbit, 5 mg/kg
Non-standard residues stand in square brackets, D forms with d. Residues, ends and D or L forms follow the SMILES beside them. NMeR = CN[C@@H](CCCNC(=N)N)C(=O)O
OBSERVATION TYPE: LD50 at 24 h
# answer = value followed by unit

Look up LD50 at 24 h: CN[C@@H](CCCNC(=N)N)C(=O)N[C@@H](CCCCN)C(=O)N[C@@H](CCCCN)C(=O)N[C@@H](Cc1ccc(O)cc1)C(=O)N[C@@H](CCCCN)C(=O)N[C@@H](Cc1ccc(O)cc1)C(=O)N[C@@H](CCCNC(=N)N)C(=O)N[C@H](CCCNC(=N)N)C(=O)N[C@@H](CCCCN)C(N)=O [PIK2] (H-[NMeR]KKYKYR[dR]K-NH2)
5 mg/kg

* * *

- RECORDED CONDITIONS: rabbit, in vivo, iv
Non-standard residues stand in square brackets, D forms with d. Residues, ends and D or L forms follow the SMILES beside them. NMeR = CN[C@@H](CCCNC(=N)N)C(=O)O
OBSERVATION TYPE: LD50

Which value of LD50 has been reported for CN[C@@H](CCCNC(=N)N)C(=O)N[C@@H](CCCCN)C(=O)N[C@@H](CCCCN)C(=O)N[C@@H](Cc1ccc(O)cc1)C(=O)N[C@@H](CCCCN)C(=O)N[C@@H](Cc1ccc(O)cc1)C(=O)N[C@@H](CCCNC(=N)N)C(=O)N[C@H](CCCNC(=N)N)C(=O)N[C@@H](CCCCN)C(N)=O [PIK2] (H-[NMeR]KKYKYR[dR]K-NH2) in the records?
≤ 5 mg/kg

* * *

- ASSAY OVERVIEW: Peptide half-lives in human plasma in vitro (1H-NMR spectroscopy)
- Type: in vitro ADME
- RECORDED CONDITIONS: human, plasma, 1H-NMR, 37° C., peptide 3 mg/ml; read-out: T1/2, half-life in human plasma in vitro
Non-standard residues stand in square brackets, D forms with d. Residues, ends and D or L forms follow the SMILES beside them.
OBSERVATION TYPE: half-life

Report half-life for C[C@H](NC(=O)[C@H](C)NC(=O)[C@H](CCCNC(=N)N)NC(=O)[C@@H](CCCCN)NC(=O)[C@@H](N)CCCCN)C(=O)N[C@@H](CCCNC(=N)N)C(=O)N[C@@H](C)C(=O)N[C@H](C(=O)N[C@@H](CO)C(N)=O)[C@@H](C)O [PIK7] (H-K[dK]RAARATS-NH2) please.
> 5.33 h

* * *

- ASSAY OVERVIEW: Acute toxicity in mice, single injection
- Assay type: in vivo
- RECORDED CONDITIONS: mouse, in vivo; after single intravenous injection (as printed in b7); read-out: LD50 in mice
- Procedure: The study was conducted in 82 BALB/c mice (both males and females, body weight 18-24 g) obtained from the animal facility of the Scientific Center for Biomedical Technologies of the Federal Medico-Biological Agency of the Russian Federation (SCBMT). The animals were certified and otherwise healthy. […] PIK2 and PIK7 peptides were dissolved in water and administered to mice as a single intraperitoneal injection. […] The lowest dose of the active substance was determined that caused animal death.
Non-standard residues stand in square brackets, D forms with d. Residues, ends and D or L forms follow the SMILES beside them. NMeR = CN[C@@H](CCCNC(=N)N)C(=O)O
OBSERVATION TYPE: LD50 (mg/kg)
The reply should be a number in mg/kg, with the unit left off.

# query: LD50 of entry CN[C@@H](CCCNC(=N)N)C(=O)N[C@@H](CCCCN)C(=O)N[C@@H](CCCCN)C(=O)N[C@@H](Cc1ccc(O)cc1)C(=O)N[C@@H](CCCCN)C(=O)N[C@@H](Cc1ccc(O)cc1)C(=O)N[C@@H](CCCNC(=N)N)C(=O)N[C@H](CCCNC(=N)N)C(=O)N[C@@H](CCCCN)C(N)=O [PIK2] (H-[NMeR]KKYKYR[dR]K-NH2)
18
